- assay info: Concentrations of DCDQ and DCDQ carbamoyl glucuronide (M6) in human plasma, LC/SRM (Table 34)
- Format: in vivo, healthy human subjects
- condition description: human, plasma, oral, 500 mg, plasma, 500 mg (fasted), 24 hr, Mean ± S.D.; read-out: DCDQ concentration in plasma
test readout: concentration at 24 h (ng/mL)
Give just the numeric value; ng/mL need not be written.

*Q* Data request, read-out concentration at 24 h, for c1cc2c3c(c1)[C@H]1CCC[C@H]1CN3CCNC2 [DCDQ, reference compound]
*A* 5.45

###

- assay info: Metabolite profiles of DCDQ in human plasma and urine by LC/MS (Table 33)
- Assay type: in vivo, healthy human subjects
- condition description: human plasma and urine, healthy subjects receiving DCDQ
test readout: Matrix (in which DCDQ / metabolite was characterized by LC/MS)

Solved entries:
molecule: OC1CN2C[C@@H]3CCC[C@@H]3c3cccc(c32)CN1 (some centres unmarked) [Metabolite M1, hydroxy DCDQ]
result: P, U
--
molecule: c1cc2c3c(c1)[C@H]1CCC[C@H]1CN3CCNC2 [DCDQ, reference compound]
result: P, U
--
molecule: O=C(O)[C@H]1O[C@@H](OC(=O)N2CCN3C[C@@H]4CCC[C@@H]4c4cccc(c43)C2)[C@H](O)[C@@H](O)[C@@H]1O [Metabolite M6, carbamoyl glucuronide of DCDQ]
result: P, U
--
molecule: [O-][N+]12CCN=Cc3cccc(c31)[C@H]1CCC[C@H]1C2 (some centres unmarked) [Metabolite M5, DCDQ imine N-oxide]
result: P

*Q* Data request, read-out Matrix (in which DCDQ / metabolite was characterized by LC/MS), for C1=NCCN2C[C@@H]3CCC[C@@H]3c3cccc1c32 [Metabolite P3, DCDQ imine]
*A* P, U
